Cited source: paper PMC4207575

- Parameters: species or system Kunming mice
- condition-set: mouse, in vivo, iv, 5 mg/kg
No end group written: not given here.
endpoint-label: AUC(0-t)
Kindly format the answer as number then unit.

Input line: Give the measured AUC(0-t) of HSDAVFTDNYTRLRKQVAAKKYLQSIKNKRY-NH2 (C-terminus assumed) [BAY 55-9837] .
Output line: 2680 ng·h/mL
